# targetDesc: LIM domain kinase 1 (Homo sapiens, UniProt P53667)
# Sequence (P53667 whole entry, the tested form may be a part): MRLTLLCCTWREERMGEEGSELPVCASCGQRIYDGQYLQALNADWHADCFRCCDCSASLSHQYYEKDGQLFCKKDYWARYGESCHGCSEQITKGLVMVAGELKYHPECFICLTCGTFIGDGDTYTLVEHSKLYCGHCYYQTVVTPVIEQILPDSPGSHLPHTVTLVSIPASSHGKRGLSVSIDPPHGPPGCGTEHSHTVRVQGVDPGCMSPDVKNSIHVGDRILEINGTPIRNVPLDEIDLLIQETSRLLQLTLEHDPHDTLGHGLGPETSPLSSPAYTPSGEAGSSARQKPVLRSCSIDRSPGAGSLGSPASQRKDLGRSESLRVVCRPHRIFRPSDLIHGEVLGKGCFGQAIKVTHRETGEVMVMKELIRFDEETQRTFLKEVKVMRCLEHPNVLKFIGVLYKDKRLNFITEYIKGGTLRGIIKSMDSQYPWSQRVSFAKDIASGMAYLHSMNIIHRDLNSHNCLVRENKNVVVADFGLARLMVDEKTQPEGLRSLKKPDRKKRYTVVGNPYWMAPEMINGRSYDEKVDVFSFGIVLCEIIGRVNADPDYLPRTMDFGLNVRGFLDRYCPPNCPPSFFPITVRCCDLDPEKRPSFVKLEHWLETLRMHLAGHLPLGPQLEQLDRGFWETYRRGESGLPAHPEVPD
# experiment: Inhibition of LIMK1 using cofilin-2 as substrate after 60 mins by Kinase-Glo assay
pIC50: −log10 of the molar value.
Returns criterion met if the recorded pIC50 is greater than or equal to 5, and criterion not met otherwise.

Study these solved cases before continuing.
(Q) Please check the record c1ccc(CCNc2ncnc3sc4c(c23)CCCC4)cc1 and state if its pIC50 is at or above 5.
(A) criterion not met

(Q) What would you report for OCCNc1ncnc2sc3c(c12)CCCC3 ?
(A) criterion not met

(Q) What would you report for Nc1ncnc2sc3c(c12)CCN(Cc1ccccc1)C3 ?
(A) criterion met

(Q) What would you report for Nc1ncnc2c1sc1cc(-c3ccccc3)ccc12 ?
(A) criterion met

(Q) What would you report for Nc1ncnc2sc3c(c12)CCCC3 ?
(A) criterion met

Continuing:
(Q) Please check the record NC(=O)c1sc2ncccc2c1N and state if its pIC50 is at or above 5.
(A) criterion not met

(Q) What would you report for CN(C)c1ncnc2sc3c(c12)CCCC3 ?
(A) criterion not met

(Q) What would you report for Cn1c2ccccc2c2ncnc(N)c21 ?
(A) criterion met

(Q) What would you report for Nc1ncnc2sc3c(c12)CCc1ccccc1-3 ?
(A) criterion met

(Q) What would you report for Nc1nc(SCC(=O)O)nc2sc3c(c12)CCCC3 ?
(A) criterion not met

(Q) What would you report for Nc1nc(S)nc2sc3c(c12)CCCCC3 ?
(A) criterion not met

(Q) What would you report for NCCNc1ncnc2sc3c(c12)CCCC3 ?
(A) criterion not met

(Q) What would you report for CSc1nc(N)c2c3c(sc2n1)CCCCC3 ?
(A) criterion not met

(Q) What would you report for CC1(C)CCc2sc3ncnc(N)c3c21 ?
(A) criterion met

(Q) What would you report for CNc1ncnc2sc3c(c12)CCCC3 ?
(A) criterion not met

* * *

Record form. Attribute: IC50. Fill in for each entry.
# targetDesc: LIM domain kinase 1 (Homo sapiens)
# experiment: Inhibition of LIMK1 using cofilin-2 as substrate after 60 mins by TR-FRET assay
One number for each entry, in µM.

Take a look at these entries with their results.
(Q) Which IC50 is reported for this compound? CCOC(=O)C1CCc2c(sc3ncnc(N)c23)C1 (stereo not given)
(A) 2.3

(Q) What would you report for Nc1ncnc2sc3c(c12)CC1CC3C1 ?
(A) 1.8

For every item in the list below, what is its measured IC50?
1. CC1CCc2c(sc3ncnc(N)c23)C1 (stereo not given)
2. CC1CCCc2sc3ncnc(N)c3c21 (stereo not given)
3. Nc1ncnc2sc3c(c12)Cc1ccccc1-3

(A)
1. 18
2. 2.7
3. 11

* * *

# targetDesc: LIM domain kinase 1 (Homo sapiens, UniProt P53667)
# experiment: Inhibition of LIMK1 using cofilin-2 as substrate after 60 mins by TR-FRET assay
Record form. Attribute: log10 of IC50. Fill in for each entry.
Heads up, the numbers here are log10 of IC50 in µM units.

Take a look at these entries with their results.
(Q) Which log10 of IC50 is reported for this compound? Cc1c(-c2ccccc2)sc2ncnc(N)c12
(A) 1.23

(Q) What would you report for Nc1ncnc2sc3c(c12)CCN(Cc1ccccc1)C3 ?
(A) -0.18

(Q) What would you report for Nc1ncnc2sc3c(c12)CCCCC3 ?
(A) 0.40

(Q) What would you report for Nc1ncnc2sc3c(c12)CCc1ccccc1-3 ?
(A) 0.63

For every item in the list below, what is its measured log10 of IC50?
1. Cc1sc2ncnc(N)c2c1C
2. Nc1ncnc2sc3c(c12)CCC(C(=O)N1CCOCC1)C3 (centres undefined)
3. COc1ccc(-c2sc3ncnc(N)c3c2C)cc1OC
4. CC1(C)CCc2sc3ncnc(N)c3c21
5. CC1(C)CCc2c(sc3ncnc(N)c23)C1

(A)
0.64
0.98
0.51
0.32
0.45

For every item in the list below, what is its measured log10 of IC50?
1. Nc1ncnc2sc3c(c12)CCC3
2. NC(=O)C1CCc2c(sc3ncnc(N)c23)C1 (centres undefined)
3. Nc1ncnc2sc3c(c12)CCC(C(=O)NCc1ccccc1)C3 (centres undefined)
4. Nc1ncnc2sc3c(c12)CCCC3
5. Nc1ncnc2sc3c(c12)CCOC3

(A)
1. 0.72
2. 0.96
3. 0.93
4. 0.60
5. 0.54

(Q) Which log10 of IC50 is reported for this compound? CC1(C)Cc2c(sc3ncnc(N)c23)CO1
(A) 1.10

src = ChEMBL document CHEMBL1833960
